Just for reference, the nanobody polyreactivity screen of Harvey et al. (2022) is where these values come from.

PROTOCOL DETAILS: yeast display, Sf9 membrane polyspecificity reagent, FACS + sequencing; frameworks hold sequencing errors

| RESIDUE SEQUENCE | polyreactivity (PSR sort gate) |
| --- | --- |
| LVQLQESGGGLVQAGGSLRLSCAASGTISPGGYMGWYRQAPGQERELVASINVGGSTNYADSVKGRFTISRDNAKNPVDLQMNSLKPEDNAVYYCAVWGRNRLQLSYWGQGTQVTVSS | low polyreactivity |
| QVQLVESGGGLVQAGGTLRLSCAASGPILSRNAMAWYRQAPGKERELVAAISRSGGSTYYADSVKGRFTISRDNAKNTVYFQMNSLKPEDTAVYYSATRYMGRLDYWGQGTQVTVSS | high polyreactivity |
| QVQLVESGGGLVQAGGSLRLSCAASGSTFTQNAMGWYRQAPGKERELVAAIDRRGGSTYYADSVKGRFTISRDNAKNTVYLQMNSLKPEDTAVYYCAASFSYNRPKRFTHNYEYWGQGTQVTVSS | low polyreactivity |
| QVQLVESGGGLVQAGGSLRLSCAASGFIFDPYGMGWYRQAPGKERELVAAITASGGTTYYADSVKGRFTISLDYANNTVYLQLNSLKPEDTAVYYCAAAVWYRGWYRYDYWGQGTKVTVSS | low polyreactivity |
| QVQLVESGGGLVQAGGSLRLSCAASGSTFVGNAMGWYRQAPGKERELVANITSGGSTNYADSVKGRFTISRDNAKNTVYLQMNSLKPEDTAVYYCAAVYLWSQRREYWGQGTQVTVSS | low polyreactivity |
| QVQLVESGGGLVQAGGSLRLSCAASGRIFGNYAMGWYRQAPGKERELVAAITSGARTYYADSVKGRFTISRDNAKNTVYLQMNSLKPEDTAVYYCAAYHKSYSNRYDYWGQGTHVTVSS | high polyreactivity |
| QVQLVESGGGLVQAGGSLRLSCAASGSTLQRYTMGLYRPAPGKERELDAAITQSGGSTFYADSVKGRFTISRDNAKNTVYLQMNSLKPEDTAVYYCAAKLTTGYYYGVPRDYWGQGTQVTVSS | high polyreactivity |
| QVQLVESGGGLVQAGGSLRLSCAASGSIFVVNAMGWYRQAPGKERELGASISQSGDNTYYADSVKGRFTISRDNAKNTVYLQMISLKTEDTAVYYCNAYGGYPEVDYWGQGTQVTVSS | low polyreactivity |
| QVQLVESGGGLVQAGGSLRLSCAASGSIHSLYTMGWYRQAPGKERELVARISRSGGSTYYADSVKGRFTISRDYAKNTVYLQMNSLKPEDTAVYYCADERKNKYDYWGQGTQVTVSS | high polyreactivity |
| QVQLVESGGGLVQAGGSLRLSCAASGFTFRVNAMGWYRQAPGKERELVAAISSGGSTNYADSVKGRFTISRDNAKYTVYLQMNSLKPEDTAVYYCAKRFKYIYYWGQGTQVTVSS | high polyreactivity |
| QVQLVESGGGLVQAGGSLRLSSAASGSIFLFYAMGWYRQAPGKERELVATITTGAGSTYYADSVKGRFTISRDNAKNTVFLQMNSLKPEDTAVYYCAATVSYDFGYVAVSYDYWGQGTQVTVSS | low polyreactivity |
| QVQLVESGGGLVQAGGSLRLSCAASGRIFGLNAMGRYRQAPGKERELVAAISERDGSTYYADSVKGRFTISRDNAKNTVYLQMNSLKPEDTAVYYCAAEKPVHYVRGVHYDYWGQGTQVTVSS | low polyreactivity |
| QVQLVESGGGLVQAGGSLRLSCAASGRIFDENAMGWYRQAPGKERELVATISSSGVSTSYADSVKGRFTISRDNAKNTVYLQMNSLKPEDTAVYYCNAGYRRRYKFDYWGQGTQVTVSS | low polyreactivity |
| QVQLVESGGGLVQAGGSLRLSCAASGRTFRVYAMGWYRQAPGKERELVATITSSGGSTYYADSVKGRFTISRDNAKNTVYLQMNSLKPEDTAVYYCNVSVYYNYDSSYYYWGQGTQVTVSS | low polyreactivity |
| QVQLVDSGGGLVQAGGSLRLSCAASGSIFDPNAMGWYRQAPGKERELVADIDSSDGSTYYADSVKGRFTISRDNAKNTVYLQMNSLKPEDTAVYYCNALSALAVEDGYWGQGTQVTVSS | low polyreactivity |
| QVQLLESGGGLVQAGGILRLSCAASGRIIVYYAMGWYRQAPGKERELVAAITRGGSTKYADSVKGRFTISRDNAKNTVYLQMNSLKPEDTAVYYCATATSRRSGYDYWGQGTQVSVSS | high polyreactivity |
| QVQRVESGGGLVQAGGSLRLSCAASGRTFRSYAMGWYRQAPGKERQFVAAISRSGASTRYADSVKGRFTISRDNAKNTVYFQMNSLKPEDTAVYYCAAVWPDVRGYDYWGQGTQVTVSS | high polyreactivity |
| QVQLVESGGGLVQAGGSLRLSCAASGHIFYAYAMGWYRQAPGKERELVASITYRGVSTYYADSVKGRFTISRDNAKNTVYLQMNSLKPEDTAVYYCAAGRSRYLWFGRDFDYWGQGTQVTVSS | low polyreactivity |
| QVQLVESGGGLVQAGGSLRISCAASGSIFSFYAMGWYRQAPGKERELVAAISSGGSTYYADSVKGRFTISRDNAKNTVYLQMNSLKPEDTAVYYCAHGFAQYGLDLDPGDYDYWGQGTQVTVSS | low polyreactivity |
| QVQLVESGGGLVQAGGSLRLSCAASGYIFGVYAMGWYRQAPGKERELVAAISYGVGSTSYADSVKGRFTISRDNAKNTVYLQMNSLKPEDTAVYYCAADVFFYVYEAYLLYYWGQGTQVTVSS | low polyreactivity |
| HGQLVESGGGLVQAGGSLRLSCAASGRTFRYYAMGWYREAPGKERELVAAITGSGGSTYYADSVKGRFTISRDNAQNTVYLQMNSLKPEDTAVYYCATRWALRWRGGYWGQGTQVTVSS | high polyreactivity |
